Reference source: paper PMC7377239

Measured cm.amp.avg.24hrs values are reported for all entries that follow.
# Tested on: iPSC-CMs, iPSC-ECs and HUVECs phenotypes
# procedure text: ToxPi 2.0 integration of POD values and physicochemical descriptors
# Set-up: species or system human
# condition set: ToxPi-scaled (0-1) score; iPSC cardiomyocytes, 24 h
Counter-ions that a name gives are not always drawn.
Output: the number by itself.

Observe how each entry below is paired with its result.
Oc1cccc(-c2ccc(Cl)cc2)c1
0.4464
Clc1cccc(-c2cccc(Cl)c2)c1
0.07152
O=S(=O)(O)Oc1ccc(-c2ccc(Cl)cc2)cc1 [4'-PCB 3 sulfate]
0

Challenge: // lookup cm.amp.avg.24hrs for O=S(=O)(O)Oc1cc(Cl)c(-c2cc(Cl)ccc2Cl)cc1Cl [4-PCB 52 sulfate]
Response given: 0

Challenge: // lookup cm.amp.avg.24hrs for "Clc1ccc(Cl)c(-c2cc(Cl)ccc2Cl)c1"
Response given: 0.3455
